Entries and their switch fluorescence ratio
- System: ATP;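 further: ATP exposure 15 min at 22 °C before imaging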
- Test details: switch fluorescence ratio, 500 uM ATP over buffer (Cy3 cluster intensity, sum of 5 cycles each) (fold (ratio)); higher = stronger signal-on switching upon ATP binding; sequences stand for … in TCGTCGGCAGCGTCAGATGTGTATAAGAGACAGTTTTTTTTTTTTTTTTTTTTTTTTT…TC
- Run conditions: aptamer strand: ATP DNA aptamer (quencher-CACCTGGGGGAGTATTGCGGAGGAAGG + anchor), 100 nM annealed; ATP concentration: 500 uM

[[record]]
seq = "CCCCCGGGGG"
system_tested = "ATP"
measured_property = "switch fluorescence ratio"
assay_result = 1.91

[[record]]
seq = "CGGAGTTGCG"
system_tested = "ATP"
measured_property = "switch fluorescence ratio"
assay_result = 0.98

[[record]]
seq = "GATGGGACAA"
system_tested = "ATP"
measured_property = "switch fluorescence ratio"
assay_result = 1.01

[[record]]
seq = "AGATTGGGTT"
system_tested = "ATP"
measured_property = "switch fluorescence ratio"
assay_result = 0.967

[[record]]
seq = "AATGGATACG"
system_tested = "ATP"
measured_property = "switch fluorescence ratio"
assay_result = 1.05


Notebook: `CATGCGCTTC` , switch fluorescence ratio read as 2.39

Notebook: `TGGGGTAAAA` , switch fluorescence ratio read as 0.99

Notebook: `CCAATTTTGG` , switch fluorescence ratio read as 0.977

Notebook: `TTAAGTAATA` , switch fluorescence ratio read as 1.02

Notebook: `TGTTTTGTGT` , switch fluorescence ratio read as 1.04

Notebook: `CACTGAAGTT` , switch fluorescence ratio read as 1.03

Notebook: `GCGGCACGGG` , switch fluorescence ratio read as 1.02

Notebook: `GGGAAGTTTG` , switch fluorescence ratio read as 1

Notebook: `TTACTTCTCA` , switch fluorescence ratio read as 1

Notebook: `ATTGTGAGAC` , switch fluorescence ratio read as 0.986

* * *

- Test system: ATP;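 further: ATP exposure 15 min at 22 °C before imaging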
- Test details: switch fluorescence ratio, 500 uM ATP over buffer (Cy3 cluster intensity, sum of 5 cycles each) (fold (ratio)); higher = stronger signal-on switching upon ATP binding; sequences stand for … in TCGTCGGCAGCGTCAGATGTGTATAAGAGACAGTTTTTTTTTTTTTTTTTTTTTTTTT…TC
- Run conditions: aptamer strand: ATP DNA aptamer (quencher-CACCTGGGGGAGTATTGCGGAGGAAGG + anchor), 100 nM annealed; ATP concentration: 500 uM
Entries and their switch fluorescence ratio
Please give the numeric answer without any surrounding text.

[[record]]
seq = "ACGGTTAGTC"
system_tested = "ATP"
assay_result = 1.04


switch fluorescence ratio of `TAGGGGTTTT` , assay on ATP, is 1.01

switch fluorescence ratio of `CGGCCCACGC` , assay on ATP, is 1.04

switch fluorescence ratio of `TGTGAACTTT` , assay on ATP, is 1.01

switch fluorescence ratio of `TGATTAGGGT` , assay on ATP, is 1.05

switch fluorescence ratio of `GTTTGGGTTT` , assay on ATP, is 0.992

switch fluorescence ratio of `TGATGGGCGC` , assay on ATP, is 1.03

switch fluorescence ratio of `GTGAGTGTCA` , assay on ATP, is 1

switch fluorescence ratio of `CCGGGCTGGA` , assay on ATP, is 1.08

switch fluorescence ratio of `ACATTGAGCG` , assay on ATP, is 1.03

* * *

- Tested on: ATP;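 further: ATP exposure 15 min at 22 °C before imaging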
- Test details: switch fluorescence ratio, 500 uM ATP over buffer (Cy3 cluster intensity, sum of 5 cycles each) (fold (ratio)); higher = stronger signal-on switching upon ATP binding; sequences stand for … in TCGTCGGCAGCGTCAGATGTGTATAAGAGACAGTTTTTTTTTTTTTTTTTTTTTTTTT…TC
- Run conditions: aptamer strand: ATP DNA aptamer (quencher-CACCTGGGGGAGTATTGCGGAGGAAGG + anchor), 100 nM annealed; ATP concentration: 500 uM
Measured property: switch fluorescence ratio

Solved entries:
[[record]]
seq = "TTTTGAAAGT"
system_tested = "ATP"
assay_result = 1.07

[[record]]
seq = "TGGGGGCGGA"
system_tested = "ATP"
assay_result = 1.01

[[record]]
seq = "TCTATTTTTT"
system_tested = "ATP"
assay_result = 1.01

[[record]]
seq = "ATGGAGAGAA"
system_tested = "ATP"
assay_result = 1.01

[[record]]
seq = "ATAAGGGAGT"
system_tested = "ATP"
assay_result = 0.991


Notebook: `AGTTGTTGGG` , switch fluorescence ratio read as 0.998

Notebook: `AGGGGGGTGT` , switch fluorescence ratio read as 1.03

Notebook: `GTATCCCCCG` , switch fluorescence ratio read as 1.03

Notebook: `CGGGGGCGCT` , switch fluorescence ratio read as 1.02

Notebook: `TTTGAGGTCT` , switch fluorescence ratio read as 1.05

Notebook: `GCGATTATCT` , switch fluorescence ratio read as 1

* * *

Entries and their switch fluorescence ratio
- Test system: ATP;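 further: ATP exposure 15 min at 22 °C before imaging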
- Test details: switch fluorescence ratio, 500 uM ATP over buffer (Cy3 cluster intensity, sum of 5 cycles each) (fold (ratio)); higher = stronger signal-on switching upon ATP binding; sequences stand for … in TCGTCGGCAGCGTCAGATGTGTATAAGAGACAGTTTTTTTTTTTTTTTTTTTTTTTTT…TC
- Run conditions: aptamer strand: ATP DNA aptamer (quencher-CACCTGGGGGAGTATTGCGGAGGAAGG + anchor), 100 nM annealed; ATP concentration: 500 uM
Please give the numeric answer without any surrounding text.

Notebook: `TGGGGTCGCT` , switch fluorescence ratio read as 0.983

Notebook: `GATTTGATTG` , switch fluorescence ratio read as 1

Notebook: `ATAGGTAGTC` , switch fluorescence ratio read as 0.996

Notebook: `TTAATAAATT` , switch fluorescence ratio read as 1.03

Notebook: `TTCGGGGCGG` , switch fluorescence ratio read as 0.934

Notebook: `ACAGGTTAAT` , switch fluorescence ratio read as 1.02

* * *

- System: ATP;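 further: ATP exposure 15 min at 22 °C before imaging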
- Test details: switch fluorescence ratio, 500 uM ATP over buffer (Cy3 cluster intensity, sum of 5 cycles each) (fold (ratio)); higher = stronger signal-on switching upon ATP binding; sequences stand for … in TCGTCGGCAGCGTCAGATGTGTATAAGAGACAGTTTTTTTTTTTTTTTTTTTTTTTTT…TC
- Run conditions: aptamer strand: ATP DNA aptamer (quencher-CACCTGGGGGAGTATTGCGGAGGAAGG + anchor), 100 nM annealed; ATP concentration: 500 uM
Entries and their switch fluorescence ratio
Please give the numeric answer without any surrounding text.

Solved entries:
[[record]]
seq = "AAGTCGGTGT"
assay_result = 0.988

[[record]]
seq = "GCGATGAATC"
assay_result = 1.04

[[record]]
seq = "CTAGTTAGCT"
assay_result = 1.02

[[record]]
seq = "CATTCTGATC"
assay_result = 1

[[record]]
seq = "CGCAGGATTT"
assay_result = 1.09


switch fluorescence ratio of `TAAACTCCTT` , assay on ATP, is 1.05

switch fluorescence ratio of `GAAGATACGG` , assay on ATP, is 1.03

switch fluorescence ratio of `CTTGTAAGGT` , assay on ATP, is 0.976

switch fluorescence ratio of `TAGGGTATG` , assay on ATP, is 0.983

switch fluorescence ratio of `GGGGGGCACC` , assay on ATP, is 0.994

switch fluorescence ratio of `CTTCGGTTCT` , assay on ATP, is 1.02

switch fluorescence ratio of `GACATTCTCG` , assay on ATP, is 1

switch fluorescence ratio of `GGAATTATAA` , assay on ATP, is 0.99

switch fluorescence ratio of `GAAAGGGGCC` , assay on ATP, is 1.01

switch fluorescence ratio of `TGGGCTACTG` , assay on ATP, is 1.04

switch fluorescence ratio of `ATGTTGGGCA` , assay on ATP, is 1.01

switch fluorescence ratio of `GGGCTTGTAT` , assay on ATP, is 1.03

switch fluorescence ratio of `TGGGGTTATT` , assay on ATP, is 0.974

* * *

- System: ATP;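 further: ATP exposure 15 min at 22 °C before imaging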
- Test details: switch fluorescence ratio, 500 uM ATP over buffer (Cy3 cluster intensity, sum of 5 cycles each) (fold (ratio)); higher = stronger signal-on switching upon ATP binding; sequences stand for … in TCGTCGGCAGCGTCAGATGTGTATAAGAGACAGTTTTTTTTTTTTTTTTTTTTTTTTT…TC
- Run conditions: aptamer strand: ATP DNA aptamer (quencher-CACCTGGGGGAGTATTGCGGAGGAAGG + anchor), 100 nM annealed; ATP concentration: 500 uM
Entries and their switch fluorescence ratio
Please give the numeric answer without any surrounding text.

Solved entries:
[[record]]
seq = "TTCTTTTAGG"
system_tested = "ATP"
assay_result = 0.996

[[record]]
seq = "TGAGAAATTA"
system_tested = "ATP"
assay_result = 1.05

[[record]]
seq = "GTGAGGGGTA"
system_tested = "ATP"
assay_result = 0.975


Notebook: `TAGGGTCTGT` , switch fluorescence ratio read as 0.999

Notebook: `AGTGGGGGGG` , switch fluorescence ratio read as 0.991

Notebook: `TCCAAGCTGG` , switch fluorescence ratio read as 1.03

Notebook: `AGACTAGTCG` , switch fluorescence ratio read as 0.972

Notebook: `AAACAGTAGA` , switch fluorescence ratio read as 1.07

Notebook: `GCAATATGGG` , switch fluorescence ratio read as 1.84

Notebook: `GGGTGTTTTG` , switch fluorescence ratio read as 0.996

Notebook: `CACTAACTA` , switch fluorescence ratio read as 1.12
